// values below are reported TGI
- Test system: ACHN renal
- METHOD NOTES: NCI tumour cell line growth inhibition, 48 h

{"MOLECULE": "C=C1C(=O)O[C@H]2[C@H]1CC/C(COC(=O)c1cc(OC)c(OC)c(OC)c1)=C\\CC[C@@]1(C)O[C@@H]21", "TGI": "2.02 µM"}
{"MOLECULE": "Oc1ccc(Cl)cc1C(c1cc(Cl)ccc1O)C(Cl)(Cl)Cl", "TGI": "4.11 µM"}
{"MOLECULE": "N#CCn1c(=O)c(Oc2ccc(F)cc2F)cc2cnc(NC3CCOCC3)nc21", "TGI": "> 25 µM"}
{"MOLECULE": "CCOC(=O)N/N=C(/N)c1cccc(Br)c1", "TGI": "> 100 µM"}
{"MOLECULE": "CCC(NC(C)c1ccccc1)C(=O)c1ccc(OCc2ccccc2)c(OCc2ccccc2)c1 (stereo unspecified)", "TGI": "> 100 µM"}
{"MOLECULE": "c1ccc(-c2oc(-c3ccccc3)c(CN3CCCCC3)c2CN2CCCCC2)cc1", "TGI": "10.2 µM"}
{"MOLECULE": "O=C1NC2NC3NC(=O)NC3NC2N1 (stereo unspecified)", "TGI": "> 100 µM"}
{"MOLECULE": "O=C1Nc2ccc(Br)cc2C12CC(c1ccccc1)=NN2 (stereo unspecified)", "TGI": "> 100 µM"}
{"MOLECULE": "Oc1ccc(Br)cc1C=Nc1cccc(C(F)(F)F)c1", "TGI": "> 100 µM"}
{"MOLECULE": "O=c1[nH]/c(=C/c2ccc3c(c2)OCO3)c(=O)[nH]/c1=C/c1ccc2c(c1)OCO2", "TGI": "> 10 µM"}
{"MOLECULE": "O=S1(=O)N2CN3CN(C2)CN1C3", "TGI": "283 µM"}
